# measurement_description: Saturation solubility of compound 1 in various buffer media
# Format: physicochemical
# conditions_used: aqueous buffer, thermodynamic from solid; Phosphate buffer solution (0.3 M), actual pH 7.5
readout_label: solubility (µg/mL)
Give bare numbers, in µg/mL.

Fill in reported solubility for this entry: `O=C(O)CCCCN(CCc1ccccc1OCc1ccc(CCc2ccccc2)cc1)Cc1ccc(C(=O)O)cc1` 1.3

----------
# measurement_description: Saturation solubility of compound 1 in various buffer media
# Type: physicochemical
# conditions_used: aqueous buffer, thermodynamic from solid; Phosphate buffer solution (0.2 M), actual pH 7.5
readout_label: solubility (µg/mL)
One number for each entry, in µg/mL.

Fill in reported solubility for this entry: `O=C(O)CCCCN(CCc1ccccc1OCc1ccc(CCc2ccccc2)cc1)Cc1ccc(C(=O)O)cc1` 15.8

----------
# measurement_description: Saturation solubility of compound 1 in various buffer media
# Type: physicochemical
# conditions_used: aqueous buffer, thermodynamic from solid; Ammonium chloride buffer solution, actual pH 9.5
readout_label: solubility (mg/mL)
Give bare numbers, in mg/mL.

Fill in reported solubility for this entry: `O=C(O)CCCCN(CCc1ccccc1OCc1ccc(CCc2ccccc2)cc1)Cc1ccc(C(=O)O)cc1` 75.7

----------
# measurement_description: Saturation solubility of compound 1 in various buffer media
# Type: physicochemical
# conditions_used: aqueous buffer, thermodynamic from solid; Diethanolamine buffer solution, actual pH 10.0
readout_label: solubility
Answer as a quantity: numeral, then unit.

Fill in reported solubility for this entry: `O=C(O)CCCCN(CCc1ccccc1OCc1ccc(CCc2ccccc2)cc1)Cc1ccc(C(=O)O)cc1` 89.8 mg/mL

----------
# measurement_description: Saturation solubility of compound 1 in various buffer media
# Assay type: physicochemical
# conditions_used: aqueous buffer, thermodynamic from solid; Phosphate buffer solution, actual pH 9.0
readout_label: solubility (µg/mL)
Numbers only, in µg/mL.

Fill in reported solubility for this entry: `O=C(O)CCCCN(CCc1ccccc1OCc1ccc(CCc2ccccc2)cc1)Cc1ccc(C(=O)O)cc1` 683

----------
# measurement_description: Saturation solubility of compound 1 in various buffer media
# Assay type: physicochemical
# conditions_used: aqueous buffer, thermodynamic from solid; Phosphate buffer solution, actual pH 8.0
readout_label: solubility (µg/mL)
One number for each entry, in µg/mL.

Fill in reported solubility for this entry: O=C(O)CCCCN(CCc1ccccc1OCc1ccc(CCc2ccccc2)cc1)Cc1ccc(C(=O)O)cc1 [compound 1] 3.2

----------
# measurement_description: Saturation solubility of compound 1 in various buffer media
# Type: physicochemical
# conditions_used: aqueous buffer, thermodynamic from solid; Phosphate buffer solution, actual pH 7.2
readout_label: solubility (µg/mL)
Numbers only, in µg/mL.

Fill in reported solubility for this entry: O=C(O)CCCCN(CCc1ccccc1OCc1ccc(CCc2ccccc2)cc1)Cc1ccc(C(=O)O)cc1 [compound 1] 8.4

----------
# measurement_description: Saturation solubility of compound 1 in various buffer media
# Assay type: physicochemical
# conditions_used: aqueous buffer, thermodynamic from solid; Citric acid-phosphate buffer, actual pH 7.4
readout_label: solubility (µg/mL)
Answers are plain numbers, in µg/mL.

Fill in reported solubility for this entry: `O=C(O)CCCCN(CCc1ccccc1OCc1ccc(CCc2ccccc2)cc1)Cc1ccc(C(=O)O)cc1` 13.1

----------
# measurement_description: Saturation solubility of compound 1 in various buffer media
# Type: physicochemical
# conditions_used: aqueous buffer, thermodynamic from solid; Phosphate buffer solution, actual pH 6.0
readout_label: solubility
Answer as a quantity: numeral, then unit.

Fill in reported solubility for this entry: `O=C(O)CCCCN(CCc1ccccc1OCc1ccc(CCc2ccccc2)cc1)Cc1ccc(C(=O)O)cc1` 0.2 µg/mL

----------
# measurement_description: Saturation solubility of compound 1 in various buffer media
# Format: physicochemical
# conditions_used: aqueous buffer, thermodynamic from solid; Citric acid-phosphate buffer, actual pH 8.0
readout_label: solubility
Answer as a quantity: numeral, then unit.

Fill in reported solubility for this entry: O=C(O)CCCCN(CCc1ccccc1OCc1ccc(CCc2ccccc2)cc1)Cc1ccc(C(=O)O)cc1 [compound 1] 64.2 µg/mL

----------
# measurement_description: Saturation solubility of compound 1 in various buffer media
# Assay type: physicochemical
# conditions_used: aqueous buffer, thermodynamic from solid; HEPES buffer solution, actual pH 7.5
readout_label: solubility (µg/mL)
Answers are plain numbers, in µg/mL.

Fill in reported solubility for this entry: `O=C(O)CCCCN(CCc1ccccc1OCc1ccc(CCc2ccccc2)cc1)Cc1ccc(C(=O)O)cc1` 35.8
